# Tested on: NCI/ADR-RES ovarian
# experiment-description: NCI-60 one-dose screen, 48 h
# measurement-parameters: 10 µM unless noted
The panel holds about 83,000 compounds, 20% with a hit somewhere; the sample as a whole holds those more often. Calls of active or inactive are those of the source. The calls were made as follows: active = growth percent below 10; inactive = the rest.
Select the correct class. Options are active, inactive and nothing else.

Would you please look over these solved cases?
molecule	assigned-category
COc1cccc(/C=N/NC(=O)c2ccccc2Nc2ccnc(C(F)(F)F)c2)c1O	active
CCCc1cc(=O)n2c(C(=O)Nc3cccc(C(=O)OCC)c3)c(C(=O)Nc3ccc(F)cc3)sc2n1	inactive
COc1cc2c(cc1-c1c(C)noc1C)ncc1nc(C3CCOCC3)n([C@@H](C)COC(F)F)c12	inactive
c1ccc(-c2c(-c3ccccc3)[n+](Cc3ccc4ccccc4c3)c(-c3ccc(-c4nc5ccccc5s4)cc3)n2Cc2ccc3ccccc3c2)cc1	active
COc1ccc2c(c1)c(-c1nonc1-c1cn(C)c3ccccc13)cn2C	inactive

Query: // outcome(item) with item = "COc1ccc(-c2cc(-c3ccc(Nc4ccnc5cc(Cl)ccc45)cc3)nc(N3CCOCC3)n2)cc1"
Reply: inactive

Query: // outcome(item) with item = "O=C1/C(=C(/c2ccccc2)N2CCOCC2)Cc2ccccc21"
Reply: active

Query: // outcome(item) with item = CC(O)CN1CC(O)=C(c2nc3ccccc3s2)C1=N (stereo not given)
Reply: inactive

Query: // outcome(item) with item = "O=Nc1c(O)c(Cl)cc2ccccc12"
Reply: inactive

Query: // outcome(item) with item = "Cc1nc2ccccc2n1C(=O)C[C@@H]1NC(=S)NC1=O"
Reply: inactive
